target: T1, human 4-1BB-His protein (human, UniProt Q07011 24-186); assay: SPR, Biacore T200, antibody captured on Protein A chip, human 4-1BB-His as analyte
T1 construct: Recombinant His-tagged protein; also called human 4-1BB-his tag; recombinant 4-1BB protein; not shown: His tag
Param threshold (50000 M⁻¹ s⁻¹) applies to kon; output rule met when value >= threshold, rule not met when value < threshold.

Ask: hey, is kon for this one >= 50000 M⁻¹ s⁻¹? B31-V5 humanized antibody (VHH, Humanized VHH captured on a Protein A chip; also called B31 VHH-V5) VHH: QVQLVESGGGLVQPGGSLRLSCAASGDIFSIMFWYRQPQGKQREYVAHITSNGRTNYADSVTGRFTISRDNNKNTLYLQMDSLRAEDTAVYYCAADDATNTRTYWGQGTLVTVSS
Reply: rule met

Ask: Can B125-V2 humanized antibody (VHH, Humanized VHH; also called B125 VHH-V2) VHH: EVQLVESGGGLVQPGGSLRLSCAASGFAFSDYAIGWFRQAPGKEREGVSCISSSDGSTYYADSVKGRFTISRDNSKNTLYLQMNSLRAEDTAVYYCATDTTTRCPIWSYYVESDYWGQGTLVTVSS be said to have kon at or above 50000 M⁻¹ s⁻¹?
Reply: rule not met

Ask: Decide: kon of B210-V3 humanized antibody (VHH, Humanized VHH; also called B210 VHH-V3) VHH: EVQLVESGGGLVQPGGSLRLSCAASGLTFSYYAIGWFRQAPGKEREGVSCISSSGRSTNYADSVKGRFTISRDNSKNTLYLQMNSLRAEDTAVYYCATDTTTRCPIWSNYVESDYWGQGTLVTVSS >= 50000 M⁻¹ s⁻¹?
Reply: rule not met

Ask: Threshold query (kon >= 50000 M⁻¹ s⁻¹) on B210-V2 humanized antibody (VHH, Humanized VHH; also called B210 VHH-V2) VHH: EVQLVESGGGLVQPGGSLRLSCAASGFTFSYYAIGWFRQAPGKEREGVSCISSSGRSTNYADSVKGRFTISRDNSKNTLYLQMNSLRAEDTAVYYCATDTTTRCPIWSNYVESDYWGQGTLVTVSS
Reply: rule met

Ask: Entry B16-V2 humanized antibody (VHH, Humanized VHH; also called B16 VHH-V2) VHH: EVQLVESGGGLVQPGGSLRLSCAASGFTFSYYAIGWFRQAPGKEREGVSCISSSDGSTYYADSVKGRFTISRDNSKNTLYLQMNSLRAEDTAVYYCATDTTTRCPIWSYYVESDYWGQGTLVTVSS : is its kon no less than 50000 M⁻¹ s⁻¹?
Reply: rule not met
